measured_target: T1, hErbB3.mFc (soluble dimeric human ErbB3 extracellular domain fused to mouse Fc) (human)
T1 construct: called dimeric
T1 chain: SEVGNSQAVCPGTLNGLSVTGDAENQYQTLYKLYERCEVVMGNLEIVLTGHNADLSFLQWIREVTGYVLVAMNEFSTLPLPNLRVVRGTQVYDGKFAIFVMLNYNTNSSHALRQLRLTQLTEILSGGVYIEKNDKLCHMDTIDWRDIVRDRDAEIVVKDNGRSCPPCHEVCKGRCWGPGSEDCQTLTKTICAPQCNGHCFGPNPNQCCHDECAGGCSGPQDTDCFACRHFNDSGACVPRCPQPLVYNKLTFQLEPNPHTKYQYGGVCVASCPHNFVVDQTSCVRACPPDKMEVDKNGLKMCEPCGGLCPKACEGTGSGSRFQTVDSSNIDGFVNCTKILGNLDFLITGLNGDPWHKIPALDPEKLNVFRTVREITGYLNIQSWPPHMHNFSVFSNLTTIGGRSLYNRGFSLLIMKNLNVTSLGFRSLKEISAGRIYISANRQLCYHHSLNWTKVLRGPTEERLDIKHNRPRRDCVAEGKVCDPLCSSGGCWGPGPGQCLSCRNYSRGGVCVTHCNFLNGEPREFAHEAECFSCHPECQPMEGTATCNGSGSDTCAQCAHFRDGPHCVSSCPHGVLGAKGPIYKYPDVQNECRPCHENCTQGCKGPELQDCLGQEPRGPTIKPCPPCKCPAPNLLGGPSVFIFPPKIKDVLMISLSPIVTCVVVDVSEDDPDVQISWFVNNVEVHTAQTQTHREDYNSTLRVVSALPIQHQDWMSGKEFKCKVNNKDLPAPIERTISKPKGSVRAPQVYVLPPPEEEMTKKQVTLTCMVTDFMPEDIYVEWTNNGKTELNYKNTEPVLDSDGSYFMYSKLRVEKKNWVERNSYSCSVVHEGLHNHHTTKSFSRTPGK
protocol_description: SPR (Biacore), 25 C, mAb capture format
Entries and their log10 Kd
In our notation, the value equals log10 of Kd in pM.

binder	numeric_readout
H4H2132P (antibody, V domains shown, Fully human, human IgG4 Fc (H4H prefix)) VH: EVQLVESGGGVVRPGGSLRLSCAASGFTFDDYGMSWVRQFPGKGLEWVSSIDGNGGNTGYSDSVKGRFTISRDNAKNSLHLQMNSLRAEDTALYHCARDPDYDSVWGNYRPFDYWGQGTLVTVSS VL: DIVMTQSPDSLAVSLGERATINCKSSQSVLSSSNDNNYLAWFQQKPGQPPNLLIYWASTRDSGVPDRFSASGSGTDFTLAISSLQAEDVAVYYCHQYYSSPPTFGQGTKVEIKR	-0.02
H4H2154P (antibody, V domains shown, Fully human, human IgG4 Fc (H4H prefix)) VH: QVQLQESGPGLINPSQTLSVTCTVSGGSISSGGYYWTWIRQHPGKGLEWIGYISYSGNTNYNPSLKSRVTISVDTAKNQFSLKLSSVTAADTAVYFCARDSDVDTAMVDGIDIWGQGTMVTVSS VL: DIQMTQSPSSVSASVGDRVTITCRASQDISSWLAWYQQKPGRAPKLLIYTASSLQSGVPSRFSGSGSGTDFTLTISSLQPEDFATYFCQQANSFPFTFGPGTKVDIKR	-0.52
H4H2098P (antibody, V domains shown, Fully human, human IgG4 Fc (H4H prefix)) VH: QVQLVESGGGVVQPGRSLRLSCAASGFTFSSFGMHWVRQAPGKGLEWVAVIWYVEINKYHADSVKGRFTISRDDSKNTVYLQMNSLRAEDTAVYYCARDWNDGDYGMDVWGQGTTVTVSS VL: DIQLTQSPSFLSASVGDRVTITCWASQGISSFLAWYQQKAGKAPRLLIYAASTLQTGVPSRFSGSGSGTEFTLTISSLQPGDFATYHCQQLNSYPYTFGQGTKLEIKR	0.61
H4H2102P (antibody, V domains shown, Fully human, human IgG4 Fc (H4H prefix)) VH: EVQLVESGGGLVQPGGSLRLSCAASGFTFSNYDIHWVRQATGKGLEWVSAIGPAGDTYYSDSVKGRFTISREDAKNSLYLQMSSLRAGDTAVYYCASEGIAVRPDDYYGMDVWGQGTTVTVSA VL: DIQLTQSPSFLSASVGDRVTITCWASQDITSYLAWYQKKPGKAPKLLIYAASTLQSGVPSRFSGSGSGTEFTLTISSLQPEDFAAYYCQQLNSYPLTFGGGTKVDIKR	0.16
H4H2114P (antibody, V domains shown, Fully human, human IgG4 Fc (H4H prefix)) VH: QVQLVESGGGVVQPGRSLRLSCAASGFTFSSYGMHWVRQAPGKGLEWVAGMSYDGSSKYYEDSVKGRFTISRDNSKNTLNLQMNSLRVEDTAVYYCAKERDYVEYVDSYYGMDVWGQGTTVTVSA VL: AIQMTQSPSSLSASVGDRVTITCRASQGIRNDLGWYQQKPGKAPKVLIYAASSLQSGVPSRFSGSGSGTVFTLTISSLQPEDFATYYCLQDYNYPLTFGGGTKVEIKR	0.73
H4H2290P (antibody, V domains shown, Fully human, human IgG4 Fc (H4H prefix)) VH: EVQLLESGGGLVQPGGSLRLSCVASGFTFSSFAMSWVRQAPGKGLEWVSVISGSGGSTNHADSVRGRFTISRDNSLNTVYLQMHSLRAEDTALYYCVKAETSSSYFYYGMDVWGQGTTVTVSS VL: DIQLTQSPSFLSASVGDRVTITCWASQDISSYLAWYQQKPGKVPNLLIYGASSLQPGVPSRFSGSGSGTEFTLTISSLQPEDFATYYCQQLNNYPTFGGGTKLEIKR	1.15

Using the record for H4H2111P (antibody, V domains shown, Fully human, human IgG4 Fc (H4H prefix)) VH: QVQLVESGGGVVQPGRSLRLSCAASGFTFNNYGMHWVRQAPGKGLAWVAVMWYSESHKYYADSVKGRFTISRDNSKNTLYLEMNSLRVEDTAIYYCARDLGDPDAFDIWGQGTMVTVSS VL: DIQLTQSPSFLSASVGDRVTITCWASQGISSYLAWYQQKPGKAPKLLIYGASTLQSGVPSRFSGSGSGTEFTLTISSLQPEDFATYYCQQLNSYPLTFGGGTKVEIKR , state its measured log10 Kd.
0.40

Fill in log10 Kd for record H4H2151P (antibody, V domains shown, Fully human, human IgG4 Fc (H4H prefix)) VH: QVQLVESGGGVVQPGRSLRLSCAASGFTFSNYGMHWVRQAPGKGLEWVARIWYDGSNKYYADSVKGRFTISRDSSKNTLYLQMNSLRAEDTAVYYCAREGEQNLDYYPLDVWGQGTTVTVSS VL: DIVMTQSPSSLSASVGDRVTITCRASQDIRNDLGWYQQKPGKAPKLLIYAASSLQTGVPSRFSGSVSGTDFTLTISSLQPEDFATYYCLQDYTYPLTFGGGTKVEIK
-0.67
